Molecular target: Kappa-type opioid receptor (Homo sapiens, UniProt P41145)
Sequence (P41145 whole entry): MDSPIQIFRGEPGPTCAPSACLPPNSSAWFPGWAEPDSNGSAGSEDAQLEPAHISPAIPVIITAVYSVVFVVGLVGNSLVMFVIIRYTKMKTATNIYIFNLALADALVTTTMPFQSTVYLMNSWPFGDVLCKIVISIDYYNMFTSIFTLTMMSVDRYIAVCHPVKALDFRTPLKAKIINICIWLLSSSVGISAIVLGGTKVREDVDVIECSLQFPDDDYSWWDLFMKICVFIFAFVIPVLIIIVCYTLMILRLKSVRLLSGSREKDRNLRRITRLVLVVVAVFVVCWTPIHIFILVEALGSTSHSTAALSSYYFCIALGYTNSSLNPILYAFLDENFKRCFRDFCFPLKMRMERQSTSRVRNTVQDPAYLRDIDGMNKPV
Experiment: Displacement of [3H]U-69593 from cloned kappa opioid receptor

QUERY_SMILES	Ki / nM
CN1CC[C@]23c4c5ccc(O)c4O[C@H]2c2[nH]c4ccc(Br)cc4c2C[C@@]3(O)[C@H]1C5	250
CN1CC[C@]23c4c5ccc(O)c4O[C@H]2c2[nH]c4ccc(F)cc4c2C[C@@]3(O)[C@H]1C5	310
CN1CC[C@]23c4c5ccc(O)c4O[C@H]2c2[nH]c4ccc(I)cc4c2C[C@@]3(O)[C@H]1C5	160
CN1CC[C@]23c4c5ccc(O)c4O[C@H]2c2[nH]c4ccc(Cl)cc4c2C[C@@]3(O)[C@H]1C5	360

###

Ki overview
Molecular target: Delta-type opioid receptor (Homo sapiens, UniProt P41143)
Sequence (P41143 whole entry): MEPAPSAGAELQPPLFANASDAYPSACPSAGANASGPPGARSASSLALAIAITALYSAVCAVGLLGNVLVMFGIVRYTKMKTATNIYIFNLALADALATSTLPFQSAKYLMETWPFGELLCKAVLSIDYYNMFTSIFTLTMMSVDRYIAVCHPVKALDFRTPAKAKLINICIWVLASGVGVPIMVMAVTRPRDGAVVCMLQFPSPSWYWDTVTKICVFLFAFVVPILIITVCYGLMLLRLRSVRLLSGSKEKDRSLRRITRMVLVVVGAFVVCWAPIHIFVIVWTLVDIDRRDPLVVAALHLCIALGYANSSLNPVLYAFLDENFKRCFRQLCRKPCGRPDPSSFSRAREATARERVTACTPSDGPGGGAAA
Assay: Displacement of [3H]p-Cl-DPDPE from delta opioid receptor
PROPERTY: Ki (nM)

COMPOUND	TESTED_ON	TEST_RESULT
CN1CC[C@]23c4c5ccc(O)c4O[C@H]2c2[nH]c4ccc(I)cc4c2C[C@@]3(O)[C@H]1C5	Delta-type opioid receptor (Homo sapiens, UniProt P41143)	3.8
CN1CC[C@]23c4c5ccc(O)c4O[C@H]2c2[nH]c4ccccc4c2C[C@@]3(O)[C@H]1C5 [OXYMORPHINDOLE]	Delta-type opioid receptor (Homo sapiens, UniProt P41143)	0.9
CN1CC[C@]23c4c5ccc(O)c4O[C@H]2c2[nH]c4ccc(Br)cc4c2C[C@@]3(O)[C@H]1C5	Delta-type opioid receptor (Homo sapiens, UniProt P41143)	8.6
CN1CC[C@]23c4c5ccc(O)c4O[C@H]2c2[nH]c4ccc(F)cc4c2C[C@@]3(O)[C@H]1C5	Delta-type opioid receptor (Homo sapiens, UniProt P41143)	2.3
CN1CC[C@]23c4c5ccc(O)c4O[C@H]2c2[nH]c4ccc(Cl)cc4c2C[C@@]3(O)[C@H]1C5	Delta-type opioid receptor (Homo sapiens, UniProt P41143)	5.1

###

Biological target: Mu-type opioid receptor (Homo sapiens, UniProt P35372)
Sequence (P35372 whole entry): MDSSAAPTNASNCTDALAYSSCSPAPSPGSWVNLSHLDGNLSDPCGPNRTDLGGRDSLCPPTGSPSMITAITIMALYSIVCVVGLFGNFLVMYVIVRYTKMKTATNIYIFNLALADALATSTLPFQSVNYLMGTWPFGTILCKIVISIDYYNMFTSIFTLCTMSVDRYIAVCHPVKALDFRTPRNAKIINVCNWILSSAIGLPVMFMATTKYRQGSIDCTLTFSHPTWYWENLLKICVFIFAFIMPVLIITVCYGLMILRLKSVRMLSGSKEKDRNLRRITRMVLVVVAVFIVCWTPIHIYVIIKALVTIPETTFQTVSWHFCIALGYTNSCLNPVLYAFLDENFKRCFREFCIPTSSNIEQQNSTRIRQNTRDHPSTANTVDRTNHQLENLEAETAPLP
pKi: −log10 of the molar value.

COMPOUND	pKi
CN1CC[C@]23c4c5ccc(O)c4O[C@H]2c2[nH]c4ccccc4c2C[C@@]3(O)[C@H]1C5 [OXYMORPHINDOLE]	6.98
CN1CC[C@]23c4c5ccc(O)c4O[C@H]2c2[nH]c4ccc(I)cc4c2C[C@@]3(O)[C@H]1C5	7.18
CN1CC[C@]23c4c5ccc(O)c4O[C@H]2c2[nH]c4ccc(F)cc4c2C[C@@]3(O)[C@H]1C5	7.68
CN1CC[C@]23c4c5ccc(O)c4O[C@H]2c2[nH]c4ccc(Br)cc4c2C[C@@]3(O)[C@H]1C5	7.15
CN1CC[C@]23c4c5ccc(O)c4O[C@H]2c2[nH]c4ccc(Cl)cc4c2C[C@@]3(O)[C@H]1C5	7.33
